This collection of values is drawn from the supplement of paper PMC11208160.

- ASSAY SUMMARY: recombinant barcode read abundance after kanamycin selection (control-corrected) (log10(CPM+1)); higher = more efficient recombination; sequences stand for … in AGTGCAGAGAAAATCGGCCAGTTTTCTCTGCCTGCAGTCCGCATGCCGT…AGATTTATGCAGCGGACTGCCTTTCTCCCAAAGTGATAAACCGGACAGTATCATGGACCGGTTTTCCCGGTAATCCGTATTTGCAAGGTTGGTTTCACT; site = the 11-nt target
Criterion: recombinant barcode read abundance (log10) meeting or surpassing 0.1. Met: condition met. Not met: condition not met.

{"SEQUENCE ENTRY": "TCTTGACCTTGGGTTCTAACCTGTTGCTT (site GGCACCACTCG)", "QUALITATIVE LABEL": "condition not met"}
{"SEQUENCE ENTRY": "ACTGCGGCTTGGGTTCTAACCTGTTGCCT (site AATTCGGCTAG)", "QUALITATIVE LABEL": "condition met"}
{"SEQUENCE ENTRY": "GAGGGCACTTGGGTTCTAACCTGTTGCCA (site GAGAGCACTTG)", "QUALITATIVE LABEL": "condition not met"}
{"SEQUENCE ENTRY": "AGATCCACTTGGGTTCTAACCTGTTGCCT (site CGATCCACTAG)", "QUALITATIVE LABEL": "condition not met"}
{"SEQUENCE ENTRY": "CCACAGTCTTGGGTTCTAACCTGTTGCCT (site CCACGGTCTAG)", "QUALITATIVE LABEL": "condition met"}

----------
- ASSAY SUMMARY: recombinant UMI read abundance after kanamycin selection (control-corrected) (log10(CPM+1)); higher = more efficient recombination; extreme values may be limits of the assay; sequences stand for … in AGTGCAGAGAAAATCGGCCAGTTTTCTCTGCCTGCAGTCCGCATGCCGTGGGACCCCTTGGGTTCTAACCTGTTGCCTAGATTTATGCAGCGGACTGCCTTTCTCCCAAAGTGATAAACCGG…AGGTTGGTTTCACT; site = the 11-nt donor

{"SEQUENCE ENTRY": "CGTTCGACATGGACCGGTTTTCCCGGTAATCCGTATTTGAG (site CGTTTGACTCT)", "recombinant UMI read abundance (log10)": 0.0134}
{"SEQUENCE ENTRY": "CCCAGGGCATGGACCGGTTTTCCCGGTAATCCGTATTTGTG (site CCCAGGGCTCA)", "recombinant UMI read abundance (log10)": 0.475}
{"SEQUENCE ENTRY": "ATGATAACATGGACCGGTTTTCCCGGTAATCCGTATTTGCC (site ATGATAACTGG)", "recombinant UMI read abundance (log10)": 3.06}
{"SEQUENCE ENTRY": "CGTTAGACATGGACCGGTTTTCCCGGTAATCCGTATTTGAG (site CGTTAGTCTCT)", "recombinant UMI read abundance (log10)": 0.506}
{"SEQUENCE ENTRY": "ATCTATACATGGACCGGTTTTCCCGGTAATCCGTATTTGAT (site ATCTATACTGT)", "recombinant UMI read abundance (log10)": 0}
{"SEQUENCE ENTRY": "TTTGCGCCATGGACCGGTTTTCCCGGTAATCCGTATTTGCT (site TTTGCGACTAG)", "recombinant UMI read abundance (log10)": 0.0112}
{"SEQUENCE ENTRY": "CCAGTCACATGGACCGGTTTTCCCGGTAATCCGTATTTGGG (site CAAGTCACTCC)", "recombinant UMI read abundance (log10)": 0.0155}
{"SEQUENCE ENTRY": "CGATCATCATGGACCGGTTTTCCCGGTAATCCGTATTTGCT (site CGATCATCTAC)", "recombinant UMI read abundance (log10)": 0}
{"SEQUENCE ENTRY": "ACACGGACATGGACCGGTTTTCCCGGTAATCCGTATTTGTC (site ACACGCACTGA)", "recombinant UMI read abundance (log10)": 0}
{"SEQUENCE ENTRY": "GCAAAGCCATGGACCGGTTTTCCCGGTAATCCGTATTTGGG (site GCGAAGCCTCC)", "recombinant UMI read abundance (log10)": 0.00619}
{"SEQUENCE ENTRY": "AGGAAGCCATGGACCGGTTTTCCCGGTAATCCGTATTTGCA (site AGGAAGTCTTG)", "recombinant UMI read abundance (log10)": 0}
{"SEQUENCE ENTRY": "CCGTAAGCATGGACCGGTTTTCCCGGTAATCCGTATTTGTG (site CCGTAAGCTCA)", "recombinant UMI read abundance (log10)": 0.404}
{"SEQUENCE ENTRY": "TCATGCTCATGGACCGGTTTTCCCGGTAATCCGTATTTGCA (site TCATACTCTTG)", "recombinant UMI read abundance (log10)": 0.466}
{"SEQUENCE ENTRY": "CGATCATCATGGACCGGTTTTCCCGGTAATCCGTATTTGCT (site CGGTCATCTTG)", "recombinant UMI read abundance (log10)": 0.00419}
{"SEQUENCE ENTRY": "CAATTCCCATGGACCGGTTTTCCCGGTAATCCGTATTTGCG (site CAATTCCCTGG)", "recombinant UMI read abundance (log10)": 0}
{"SEQUENCE ENTRY": "CTGTAATCATGGACCGGTTTTCCCGGTAATCCGTATTTGTG (site CTGTAATCTCA)", "recombinant UMI read abundance (log10)": 2.52}
{"SEQUENCE ENTRY": "CAGTCGACATGGACCGGTTTTCCCGGTAATCCGTATTTGGC (site CAGTCGACTAC)", "recombinant UMI read abundance (log10)": 0.105}
{"SEQUENCE ENTRY": "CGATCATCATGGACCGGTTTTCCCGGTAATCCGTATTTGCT (site CCATCAGCTAG)", "recombinant UMI read abundance (log10)": 0}
{"SEQUENCE ENTRY": "CGCAATCCATGGACCGGTTTTCCCGGTAATCCGTATTTGGT (site CGGAATCCTAA)", "recombinant UMI read abundance (log10)": 0}
{"SEQUENCE ENTRY": "CAAGCGCCATGGACCGGTTTTCCCGGTAATCCGTATTTGTG (site CAAGCGGCTCA)", "recombinant UMI read abundance (log10)": 0.00842}
{"SEQUENCE ENTRY": "GAAGAGTCATGGACCGGTTTTCCCGGTAATCCGTATTTGTT (site GAAGACTCTAA)", "recombinant UMI read abundance (log10)": 0.941}
{"SEQUENCE ENTRY": "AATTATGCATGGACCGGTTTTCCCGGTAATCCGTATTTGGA (site AATTATGCTAC)", "recombinant UMI read abundance (log10)": 0.0199}
{"SEQUENCE ENTRY": "CCGTCTACATGGACCGGTTTTCCCGGTAATCCGTATTTGCT (site CCGTCTACTAG)", "recombinant UMI read abundance (log10)": 0.223}
{"SEQUENCE ENTRY": "GTCGGTCCATGGACCGGTTTTCCCGGTAATCCGTATTTGAA (site GTCGGTCCTTT)", "recombinant UMI read abundance (log10)": 0.0112}
{"SEQUENCE ENTRY": "GCTACTGCATGGACCGGTTTTCCCGGTAATCCGTATTTGCC (site GCTACTGCTGG)", "recombinant UMI read abundance (log10)": 1.11}
{"SEQUENCE ENTRY": "TAAAATCCATGGACCGGTTTTCCCGGTAATCCGTATTTGTA (site TAAAATCCTTA)", "recombinant UMI read abundance (log10)": 0}
{"SEQUENCE ENTRY": "GGCAATCCATGGACCGGTTTTCCCGGTAATCCGTATTTGGA (site GGCAATCCTTA)", "recombinant UMI read abundance (log10)": 0}
{"SEQUENCE ENTRY": "ATTACGACATGGACCGGTTTTCCCGGTAATCCGTATTTGGG (site ATTACGACTCC)", "recombinant UMI read abundance (log10)": 0.00852}
{"SEQUENCE ENTRY": "CTGCATACATGGACCGGTTTTCCCGGTAATCCGTATTTGTA (site CTGCATACTTA)", "recombinant UMI read abundance (log10)": 1.59}
{"SEQUENCE ENTRY": "GCCGGTCCATGGACCGGTTTTCCCGGTAATCCGTATTTGCA (site GCCGGTCCTTG)", "recombinant UMI read abundance (log10)": 0}
{"SEQUENCE ENTRY": "GTTAGACCATGGACCGGTTTTCCCGGTAATCCGTATTTGGA (site GTTAGACCTTC)", "recombinant UMI read abundance (log10)": 0.00772}
{"SEQUENCE ENTRY": "GCCGTATCATGGACCGGTTTTCCCGGTAATCCGTATTTGCA (site ACAGTATCTTG)", "recombinant UMI read abundance (log10)": 2.87}
{"SEQUENCE ENTRY": "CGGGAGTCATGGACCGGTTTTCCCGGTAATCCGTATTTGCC (site CGGGAGTCTAG)", "recombinant UMI read abundance (log10)": 2.02}
{"SEQUENCE ENTRY": "TAAAGTCCATGGACCGGTTTTCCCGGTAATCCGTATTTGTA (site TTAAGTCCTTA)", "recombinant UMI read abundance (log10)": 0.671}
{"SEQUENCE ENTRY": "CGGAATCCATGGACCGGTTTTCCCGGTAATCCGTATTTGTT (site GGGTATCCTAA)", "recombinant UMI read abundance (log10)": 0}
{"SEQUENCE ENTRY": "TGCTTGACATGGACCGGTTTTCCCGGTAATCCGTATTTGGA (site TGCTTGACTTC)", "recombinant UMI read abundance (log10)": 0.355}
